Cited source: patent US20240309103A1

# Measurement target: T1, hNPR1-mFc:hBNP complex (human, UniProt P16860 103-134)
# T1 construct: also called human NPR1 complexed to BNP
# Measurement description: SPR, mAb captured, 25C
Decide using t½ alone. Strictly below 2 h: y. Equal to or above 2 h: n.

Here are 4 binders together with their reported answers.
[[record]]
binder = "mAb22035 (antibody, human IgG4, V domains shown) VH: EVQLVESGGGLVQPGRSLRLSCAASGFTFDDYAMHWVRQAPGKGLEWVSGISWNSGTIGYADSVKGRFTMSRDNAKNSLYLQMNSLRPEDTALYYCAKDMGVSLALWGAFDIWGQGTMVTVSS VL: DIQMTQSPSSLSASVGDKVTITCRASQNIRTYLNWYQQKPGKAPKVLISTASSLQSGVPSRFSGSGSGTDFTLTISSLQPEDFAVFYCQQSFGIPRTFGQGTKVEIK"
class_name = "n"

[[record]]
binder = "mAb22033 (antibody, human IgG4, V domains shown) VH: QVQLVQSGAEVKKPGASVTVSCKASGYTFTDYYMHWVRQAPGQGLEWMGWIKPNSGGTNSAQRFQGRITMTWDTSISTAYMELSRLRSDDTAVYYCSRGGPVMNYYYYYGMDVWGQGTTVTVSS VL: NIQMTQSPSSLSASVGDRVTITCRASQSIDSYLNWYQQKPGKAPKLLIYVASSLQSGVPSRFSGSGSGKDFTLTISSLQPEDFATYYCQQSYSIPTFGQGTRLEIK"
class_name = "n"

[[record]]
binder = "mAb25502 (antibody, human IgG4, V domains shown) VH: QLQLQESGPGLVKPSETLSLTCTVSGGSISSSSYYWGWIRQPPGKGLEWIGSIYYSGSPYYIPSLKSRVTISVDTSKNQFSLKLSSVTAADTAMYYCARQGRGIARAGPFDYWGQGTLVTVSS VL: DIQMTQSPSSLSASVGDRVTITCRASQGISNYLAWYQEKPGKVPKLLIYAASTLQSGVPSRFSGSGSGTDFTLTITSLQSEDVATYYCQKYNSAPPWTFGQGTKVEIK"
class_name = "y"

[[record]]
binder = "mAb25491 (antibody, human IgG4, V domains shown) VH: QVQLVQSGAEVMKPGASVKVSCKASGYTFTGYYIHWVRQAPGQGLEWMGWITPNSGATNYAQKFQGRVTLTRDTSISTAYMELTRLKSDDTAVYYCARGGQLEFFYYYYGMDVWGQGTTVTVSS VL: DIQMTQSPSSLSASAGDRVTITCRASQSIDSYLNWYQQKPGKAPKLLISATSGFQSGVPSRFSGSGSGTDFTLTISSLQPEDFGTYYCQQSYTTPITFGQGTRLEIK"
class_name = "n"


Is it true that t½ reported for mAb25479 (antibody, human IgG4, V domains shown) VH: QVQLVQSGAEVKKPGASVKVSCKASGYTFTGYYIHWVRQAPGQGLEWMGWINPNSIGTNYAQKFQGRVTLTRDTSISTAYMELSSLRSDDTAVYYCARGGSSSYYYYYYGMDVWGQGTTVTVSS VL: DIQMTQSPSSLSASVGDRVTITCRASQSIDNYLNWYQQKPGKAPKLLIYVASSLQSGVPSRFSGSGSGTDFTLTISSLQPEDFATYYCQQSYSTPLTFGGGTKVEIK is less than 2 h? y
